Where do the numbers come from? From paper PMC9418665.

SUBJECT OF TEST: fatty acid amide hydrolase (FAAH) (Homo sapiens, UniProt O00519)
Sequence (O00519 whole entry): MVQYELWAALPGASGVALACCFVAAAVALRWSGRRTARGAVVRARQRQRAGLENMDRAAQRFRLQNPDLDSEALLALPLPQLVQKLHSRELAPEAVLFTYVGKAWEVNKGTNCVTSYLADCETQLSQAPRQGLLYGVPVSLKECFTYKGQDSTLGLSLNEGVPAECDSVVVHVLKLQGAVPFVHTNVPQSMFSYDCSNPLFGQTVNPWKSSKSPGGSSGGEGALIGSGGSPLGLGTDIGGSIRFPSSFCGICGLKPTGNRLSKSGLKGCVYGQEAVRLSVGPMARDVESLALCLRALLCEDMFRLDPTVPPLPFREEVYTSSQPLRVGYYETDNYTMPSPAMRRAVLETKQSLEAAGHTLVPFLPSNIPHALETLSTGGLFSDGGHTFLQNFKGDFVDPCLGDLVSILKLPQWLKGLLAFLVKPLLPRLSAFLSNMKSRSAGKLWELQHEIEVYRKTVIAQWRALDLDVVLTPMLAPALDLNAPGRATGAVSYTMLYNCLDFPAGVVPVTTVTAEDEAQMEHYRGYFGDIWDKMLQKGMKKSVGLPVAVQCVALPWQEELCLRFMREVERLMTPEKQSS
ASSAY INFO: biochemical
APPLIED CONDITIONS: read-out: IC50
REPORTED METRIC: IC50 (µM)

a: COc1ccc(-c2coc3cc(O)cc(O)c3c2=O)cc1 [biochanin-A]
b: O=c1c(-c2ccc(O)cc2)coc2cc(O)cc(O)c12 [genistein]
For a and b , which recorded IC50 is lower? Please indicate the selected item by its label.
b

---

SUBJECT OF TEST: fatty acid amide hydrolase (FAAH) (Homo sapiens, UniProt O00519)
ASSAY INFO: biochemical
REPORTED METRIC: IC50 (nM)
Field format: number, assumed nM, no unit text.

* CCCCC/C=C\C/C=C\C/C=C\C/C=C\CCCC(=O)NCCc1c[nH]c2ccc(O)cc12 [arch-5HT] | 1040

Could you now consider this next compound?
GET /values?readout=IC50&item= O=c1cc(-c2ccccc2)oc2cc(O)ccc12 [7-hydroxyflavone]
2040
